Source listed as ChEMBL document CHEMBL1201862.

- System: EKVX
- test: NCI tumour cell line growth inhibition, 48 h
Calls of active or inactive are those of the source. Cut-off read from the data, not from the text of the source: active = GI50 up to about 1.1 µM and inactive = higher.
outcomeMeasure: GI50

These solved cases illustrate the format of a correct answer.
[
  {
    "molecule": "c1ccc2c(c1)CCc1c(-c3ccncc3)n[nH]c1-2",
    "result": "6.14 µM (inactive)"
  },
  {
    "molecule": "O=C1CNS(=O)(=O)N1",
    "result": "> 100 µM (inactive)"
  },
  {
    "molecule": "CC(=O)C1Cn2c(nc3ccccc32)C[Se]1 (centres undefined)",
    "result": "15 µM (inactive)"
  },
  {
    "molecule": "COC(=O)C(=O)C(C#N)c1ccc(Cl)c(Cl)c1 (centres undefined)",
    "result": "64.3 µM (inactive)"
  },
  {
    "molecule": "Cc1cc2nc(-c3cc(C(C)(C)C)c(O)c(C(C)(C)C)c3)[nH]c2cc1C",
    "result": "> 39.1 µM (inactive)"
  }
]

What does the data say about its GI50? Entry: "O=C1c2ccccc2C2=Nc3ccncc3CN12"
25.9 µM (inactive)

What does the data say about its GI50? Entry: "COCC[N+](CCNC(=O)c1cccc2c(N)c3cccc(C)c3nc12)(CCOC)Cc1ccc([N+](=O)[O-])cc1"
24.2 µM (inactive)

What does the data say about its GI50? Entry: "Cc1nc2sc3ccccc3n2c(=O)c1/N=N/c1ccc(Cl)cc1"
> 100 µM (inactive)

What does the data say about its GI50? Entry: Cc1nc2c3c(ncn2n1)Oc1c(c(-c2ccccc2)nn1-c1ccccc1)C3c1ccc(Cl)cc1 (centres undefined)
> 100 µM (inactive)

What does the data say about its GI50? Entry: c1ccc(C2=NN(c3ccccc3)C3(S2)SC(c2ccccc2)(c2ccccc2)c2ccccc23)cc1 (centres undefined)
> 100 µM (inactive)

What does the data say about its GI50? Entry: "c1ccc(/C(=N/Nc2ccncn2)c2ccccn2)cc1"
4.34 µM (inactive)

What does the data say about its GI50? Entry: CCOC(=O)C(NC(=O)CC(C)C)(N1CCN(c2cc3c(cc2F)c(=O)c(C(=O)O)cn3C2CC2)CC1)C(F)(F)F (centres undefined)
23.4 µM (inactive)

What does the data say about its GI50? Entry: "COc1ccc(CCc2cc(OC)c(O)c(OC)c2)cc1"
> 100 µM (inactive)

What does the data say about its GI50? Entry: "CCOc1ccc(Nc2nc(N)nc(N)c2N)cc1"
> 100 µM (inactive)

What does the data say about its GI50? Entry: "Cn1c2ccccc2n2c(=O)c3cccnc3c(C#N)c12"
> 100 µM (inactive)

What does the data say about its GI50? Entry: COc1cccc2c1C(=O)c1c(O)c3c(c(O)c1C2=O)C[C@@](O)(C(C)=O)C[C@@H]3OC1CC(O)C(O)C(C)O1 (some centres undefined)
6.67 µM (inactive)
